# System: MDA-MB-453
# Assay remarks: drug sensitivity score (DSS), in combination with BLU9931 (DSS (weighted AUC score)); higher = more sensitive (stronger viability decrease); extreme values may be limits of the assay
# Measurement context: BLU9931 100 nM; 72 h
Label fulfilled when drug sensitivity score is at or above 0.3; anything below gets not fulfilled.

Consider the worked cases shown below.
- Compound: "Nc1cc(COc2c(Cl)cc(C[C@H](N)C(=O)O)cc2Cl)c2oc(-c3ccccc3)nc2c1 [JPH203]"
  Assigned label: "fulfilled"
- Compound: "CNC(=O)c1cc(COc2nnc(Nc3ccc(Cl)cc3)c3ccoc23)ccn1 [Telatinib]"
  Assigned label: "not fulfilled"
- Compound: "CCCCNc1ncc(C(=O)NCc2ccc(-n3ccnc3)cc2)c(NC2CCC(O)CC2)n1 (stereo unspecified) [UNC2881]"
  Assigned label: "not fulfilled"
- Compound: "C[C@H]1C[C@@H](n2c(Nc3ccc(OC(F)(F)F)cc3)nc3cc(CCC(=O)O)ccc32)CC(C)(C)C1"
  Assigned label: "not fulfilled"
- Compound: "CC(=O)OC[C@H]1O[C@@H]([S-])[C@H](OC(C)=O)[C@@H](OC(C)=O)[C@@H]1OC(C)=O.CCP(CC)CC.[Au+] [Auranofin]"
  Assigned label: "fulfilled"

## Task Dear colleague, could you confirm whether Nc1ncn([C@@H]2O[C@H](CO)[C@@H](O)[C@H]2O)c(=O)n1 [Azacitidine] has drug sensitivity score at or above 0.3?
## Result fulfilled

## Task Dear colleague, could you confirm whether COc1cccc2c1C(=O)c1c(O)c3c(c(O)c1C2=O)C[C@@](O)(/C(CO)=N/NC(=O)CCCCCN1C(=O)C=CC1=O)C[C@@H]3O[C@H]1C[C@H](N)[C@H](O)[C@H](C)O1 [Aldoxorubicin] has drug sensitivity score at or above 0.3?
## Result fulfilled

## Task Dear colleague, could you confirm whether COC(=O)c1ccc2c(c1)NC(=O)/C2=C(\Nc1ccc(N(C)C(=O)CN2CCN(C)CC2)cc1)c1ccccc1 [Nintedanib] has drug sensitivity score at or above 0.3?
## Result fulfilled

## Task Dear colleague, could you confirm whether NC1(c2ccc(-c3nc4ccn5c(=O)[nH]nc5c4cc3-c3ccccc3)cc2)CCC1 [MK-2206] has drug sensitivity score at or above 0.3?
## Result fulfilled

## Task Dear colleague, could you confirm whether C=C1C[C@@H]2[C@H](CC[C@]3(C)C(=O)CC[C@@H]23)[C@@]2(C)C=CC(=O)C=C12 [Exemestane] has drug sensitivity score at or above 0.3?
## Result not fulfilled

## Task Dear colleague, could you confirm whether CS(=O)(=O)c1ccc(C(=O)Nc2ccc(Cl)c(-c3ccccn3)c2)c(Cl)c1 [Vismodegib] has drug sensitivity score at or above 0.3?
## Result not fulfilled

## Task Dear colleague, could you confirm whether CO[C@@]12[C@H](COC(N)=O)C3=C(C(=O)C(C)=C(N)C3=O)N1C[C@@H]1N[C@@H]12 [Mitomycin C] has drug sensitivity score at or above 0.3?
## Result not fulfilled

====

# Test system: MDA-MB-453
# Assay remarks: drug sensitivity score (DSS), single agent (DSS (weighted AUC score)); higher = more sensitive (stronger viability decrease); extreme values may be limits of the assay
# Measurement context: BLU9931 0 nM; 72 h
A collection of molecules and their measured drug sensitivity score
I only need the number, thanks.

Some molecules with recorded drug sensitivity score:
- Molecule: "COc1cc(Br)c(Nc2nc(-c3c(C)nc4ncccn34)cs2)c(Br)c1"
  drug sensitivity score: 3.2
- Molecule: "Nc1cc(COc2c(Cl)cc(C[C@H](N)C(=O)O)cc2Cl)c2oc(-c3ccccc3)nc2c1"
  drug sensitivity score: 3
- Molecule: "CC(C)NC[C@@H](C(=O)N1CCN(c2ncnc3c2[C@H](C)C[C@H]3O)CC1)c1ccc(Cl)cc1"
  drug sensitivity score: 11

## Task For the molecule `CN(C)Cc1ccc(S(=O)(=O)n2ccc(/C=C/C(=O)NO)c2)cc1` , what drug sensitivity score is on record?
## Result 16

## Task For the molecule `CCCCCOC(=O)Nc1nc(=O)n([C@@H]2O[C@H](C)[C@@H](O)[C@H]2O)cc1F` , what drug sensitivity score is on record?
## Result 2.3

Where do these numbers come from? They come from the supplement of paper PMC7224384.
